The reported measurements were obtained from paper PMC9329436.

CHI: Cell Health Index: recorded values
# Test system: HL60 cells
# Method Summary: AsedaSciences SYSTEMETRIC Cell Health Screen (flow cytometry toxicity profiling)
# Applied Conditions: HL60, 4 h, 5 nM–100 µM, probability (0–1) of high-risk class, n = 2
Value Type: CHI: Cell Health Index

Molecule	Value Type	Assay Value
C#Cc1cccc(Nc2c(C#N)cnc3cc(I)ccc23)c1 [Compound 32]	CHI: Cell Health Index	0.81
C#Cc1cccc(Nc2ncnc3cc(C(F)(F)F)ccc23)c1 [Compound 16]	CHI: Cell Health Index	0.78
CCc1nn(CCCN2CCN(c3cccc(Cl)c3)CC2)c(=O)n1CCOc1ccccc1 [Nefazodone, reference compound]	CHI: Cell Health Index	0.78

----------
# Tested on: HL60 cells
# Method Summary: AsedaSciences SYSTEMETRIC Cell Health Screen (flow cytometry toxicity profiling)
# Applied Conditions: HL60, 4 h, 5 nM–100 µM, probability 0–1, n = 2
List of ROS: Reactive superoxide species score values.
Value Type: ROS: Reactive superoxide species score

Compound	Value Type	Assay Value
[H]/N=C(/N)N/C(=N/[H])NCCc1ccccc1 [Phenformin, reference compound]	ROS: Reactive superoxide species score	0.77
CCCCc1oc2ccccc2c1C(=O)c1cc(I)c(OCCN(CC)CC)c(I)c1 [Amiodarone, reference compound]	ROS: Reactive superoxide species score	0.19
C=C(C)[C@H]1Cc2c(ccc3c2O[C@@H]2COc4cc(OC)c(OC)cc4[C@@H]2C3=O)O1 [Rotenone, reference compound]	ROS: Reactive superoxide species score	0.94
CCOC(=O)N1CCC(=C2c3ccc(Cl)cc3CCc3cccnc32)CC1 [Loratadine, reference compound]	ROS: Reactive superoxide species score	0.85
C#Cc1cccc(Nc2ncnc3cc(C(F)(F)F)ccc23)c1	ROS: Reactive superoxide species score	1.00
C#Cc1cccc(Nc2ncnc3ccc(F)cc23)c1	ROS: Reactive superoxide species score	0.34
C#Cc1cccc(Nc2ncnc3ccc(Br)cc23)c1	ROS: Reactive superoxide species score	0.083
C#Cc1cccc(Nc2ccnc3ccc(I)cc23)c1F	ROS: Reactive superoxide species score	0.46
C#Cc1ccc(F)c(Nc2ncnc3cc(OC)c(OC)cc23)c1	ROS: Reactive superoxide species score	0.63
C#Cc1ccc(F)c(Nc2ncnc3ccc(I)cc23)c1	ROS: Reactive superoxide species score	0.074
COc1cc2ncnc(Nc3ccc(F)c(Cl)c3)c2cc1OCCCN1CCOCC1 [Gefitinib, reference compound]	ROS: Reactive superoxide species score	0.93
CCc1nn(CCCN2CCN(c3cccc(Cl)c3)CC2)c(=O)n1CCOc1ccccc1 [Nefazodone, reference compound]	ROS: Reactive superoxide species score	1.00
CC(C)(C(=O)O)c1ccc(C(O)CCCN2CCC(C(O)(c3ccccc3)c3ccccc3)CC2)cc1 (centres unmarked) [Fexofenadine, reference compound]	ROS: Reactive superoxide species score	0.16
CC(C)NCC(O)COc1cccc2ccccc12 (centres unmarked) [Propranolol, reference compound]	ROS: Reactive superoxide species score	0.18
O=C(O)c1cc(/N=N/c2ccc(S(=O)(=O)Nc3ccccn3)cc2)ccc1O [Sulfasalazine, reference compound]	ROS: Reactive superoxide species score	0.090
CC1(C)NC(=O)N(c2ccc([N+](=O)[O-])c(C(F)(F)F)c2)C1=O [Nilutamide, reference compound]	ROS: Reactive superoxide species score	0.090
NC(=O)c1ncn([C@@H]2O[C@H](CO)[C@@H](O)[C@H]2O)n1 [Ribavirin, reference compound]	ROS: Reactive superoxide species score	0.23
Cc1ccc(N(CC2=NCCN2)c2cccc(O)c2)cc1 [Phentolamine, reference compound]	ROS: Reactive superoxide species score	0.11
COc1ccc(/C=C/C(=O)Nc2ccccc2C(=O)O)cc1OC [Tranilast, reference compound]	ROS: Reactive superoxide species score	0.12
C#Cc1cccc(Nc2c(C#N)cnc3cc(I)ccc23)c1	ROS: Reactive superoxide species score	0.99
C#Cc1cccc(Nc2ncnc3ccc(OC)cc23)c1	ROS: Reactive superoxide species score	0.17
C#Cc1cc(Nc2ncnc3cc(OC)c(OC)cc23)ccc1F	ROS: Reactive superoxide species score	0.66
C#Cc1cc(Nc2ncnc3cc(OC)c(OC)cc23)ccc1Cl	ROS: Reactive superoxide species score	0.77

----------
# Tested on: HL60 cells
# Method Summary: AsedaSciences SYSTEMETRIC Cell Health Screen (flow cytometry toxicity profiling)
# Applied Conditions: HL60, 4 h, 5 nM–100 µM, probability 0–1, n = 2
# MMP: Mitochondrial membrane depolarization score annotations
Value Type: MMP: Mitochondrial membrane depolarization score

Compound	Assay Value
C#Cc1cc(Nc2ncnc3cc(I)ccc23)ccc1F	0.59
C#Cc1cccc(Nc2ncnc3cc(OC)c(OC)cc23)c1	0.39
C#Cc1cccc(Nc2ncnc3cc(F)ccc23)c1	0.74
C#Cc1cccc(Nc2c(C#N)cnc3cc(I)ccc23)c1	0.99
CN(CCOc1ccc(CC2SC(=O)NC2=O)cc1)c1ccccn1 (stereo not drawn) [Rosiglitazone, reference compound]	0.050
CCCCc1oc2ccccc2c1C(=O)c1cc(I)c(OCCN(CC)CC)c(I)c1 [Amiodarone, reference compound]	0.87
CC(c1cc2ccccc2s1)N(O)C(N)=O (stereo not drawn) [Zileuton, reference compound]	0.060
CC(C)(C(=O)O)c1ccc(C(O)CCCN2CCC(C(O)(c3ccccc3)c3ccccc3)CC2)cc1 (stereo not drawn) [Fexofenadine, reference compound]	0.020
Cc1ccc(=O)n(-c2ccccc2)c1 [Pirfenidone, reference compound]	0.010

----------
GSH: Glutathione score values, listed per item
# System: HL60 cells
# Method Summary: AsedaSciences SYSTEMETRIC Cell Health Screen (flow cytometry toxicity profiling)
# Applied Conditions: HL60, 4 h, 5 nM–100 µM, probability 0–1, n = 2
Value Type: GSH: Glutathione score

Compound	Value Type	Assay Value
C#Cc1ccc(F)c(Nc2ncnc3cc(I)ccc23)c1	GSH: Glutathione score	1.00
Cc1cn([C@@H]2C[C@@H](O)[C@H](CO)O2)c(=O)[nH]c1=O [Telbivudine, reference compound]	GSH: Glutathione score	0.070
C#Cc1cc(Nc2ncnc3cc(OC)c(OC)cc23)ccc1Cl	GSH: Glutathione score	0.079
CN(C)C/C=C/C(=O)Nc1cc2c(Nc3ccc(F)c(Cl)c3)ncnc2cc1O[C@H]1CCOC1 [Afatinib, reference compound]	GSH: Glutathione score	1.00
C#Cc1cccc(Nc2ncnc3ccc(F)cc23)c1	GSH: Glutathione score	0.087
COc1ccc2cc3[n+](cc2c1OC)CCc1cc2c(cc1-3)OCO2 [Berberine, reference compound]	GSH: Glutathione score	0.93
C#Cc1cccc(Nc2ncnc3ccc(Cl)cc23)c1	GSH: Glutathione score	0.011
Clc1cccc(Cl)c1N=C1NCCN1 [Clonidine, reference compound]	GSH: Glutathione score	0.10
CC/C(=C(\c1ccccc1)c1ccc(OCCN(C)C)cc1)c1ccccc1 [Tamoxifen, reference compound]	GSH: Glutathione score	1.00
O=C(O)c1cc(/N=N/c2ccc(S(=O)(=O)Nc3ccccn3)cc2)ccc1O [Sulfasalazine, reference compound]	GSH: Glutathione score	0.030
NC(=O)c1ncn([C@@H]2O[C@H](CO)[C@@H](O)[C@H]2O)n1 [Ribavirin, reference compound]	GSH: Glutathione score	0.060
C#Cc1cccc(Nc2ncnc3ccc(OC)cc23)c1	GSH: Glutathione score	0.038
COc1ccc(/C=C/C(=O)Nc2ccccc2C(=O)O)cc1OC [Tranilast, reference compound]	GSH: Glutathione score	0.030
C#Cc1cccc(Nc2ccnc3ccc(I)cc23)c1F	GSH: Glutathione score	0.16
C#Cc1cccc(Nc2ncnc3cc(I)ccc23)c1	GSH: Glutathione score	0.98
CN1CCN(CCCN2c3ccccc3Sc3ccc(Cl)cc32)CC1 [Prochlorperazine, reference compound]	GSH: Glutathione score	1.00
CCC(C)(C)C(=O)O[C@H]1C[C@@H](C)C=C2C=C[C@H](C)[C@H](CC[C@@H]3C[C@@H](O)CC(=O)O3)[C@H]21 [Simvastatin, reference compound]	GSH: Glutathione score	0.41
C#Cc1cc(Nc2ncnc3cc(I)ccc23)ccc1Cl	GSH: Glutathione score	0.99
Cc1ccc(=O)n(-c2ccccc2)c1 [Pirfenidone, reference compound]	GSH: Glutathione score	0.040
C#Cc1cccc(Nc2ccnc3cc(I)ccc23)c1F	GSH: Glutathione score	0.92
C#Cc1cccc(Nc2ncnc3ccc(S(C)(=O)=O)cc23)c1	GSH: Glutathione score	0.044
O=C(O)CCc1nc(-c2ccccc2)c(-c2ccccc2)o1 [Oxaprozin, reference compound]	GSH: Glutathione score	0.030
C#Cc1cccc(Nc2ncnc3cc(OC)c(OC)cc23)c1F	GSH: Glutathione score	0.38
C#Cc1cccc(Nc2ncnc3cc(F)ccc23)c1	GSH: Glutathione score	0.004
C#Cc1cccc(Nc2ncnc3ccc(C)cc23)c1	GSH: Glutathione score	0.12
C#Cc1cccc(Nc2ncnc3cc(C(F)(F)F)ccc23)c1	GSH: Glutathione score	0.79
C#Cc1cc(Nc2ncnc3ccc(I)cc23)ccc1Cl	GSH: Glutathione score	0.18

----------
The entries below come with measured CC: Cell Cycle score values attached.
# System: HL60 cells
# Method Summary: AsedaSciences SYSTEMETRIC Cell Health Screen (flow cytometry toxicity profiling)
# Applied Conditions: HL60, 4 h, 5 nM–100 µM, probability 0–1, n = 2
# Description: To prioritize further optimization, in addition to cellular potency, we utilized the AsedaSciences® […]® Cell Health Screen. […] In a 384-well platform, HL60 cells were exposed to a 10-step, 3 × dilution series of each test compound (5 nM–100 µM) for 4 h at 37 °C with 5% CO2. […] Fluorescence and forward/side-scatter data were collected using automated FC with no gating. […]
Value Type: CC: Cell Cycle score

Structure	Value Type	Assay Value
C#Cc1cccc(Nc2ncnc3ccc(Br)cc23)c1	CC: Cell Cycle score	0.087
C#Cc1cccc(Nc2ccnc3ccc(I)cc23)c1F	CC: Cell Cycle score	0.12
C#Cc1cccc(Nc2ncnc3ccc(F)cc23)c1	CC: Cell Cycle score	0.34
C#Cc1cccc(Nc2c(C#N)cnc3cc(I)ccc23)c1	CC: Cell Cycle score	0.95
C#Cc1cccc(Nc2ncnc3cc4c(cc23)OCO4)c1	CC: Cell Cycle score	0.13
